# reported GI50; entries follow
System: A498
Experiment: NCI tumour cell line growth inhibition, 48 h
Calls of active or inactive are those of the source. Rule as the data show it: active = GI50 up to about 1.1 µM and inactive = higher.
Measured property: GI50

> print(dat)
                                   compound  target.desc  measured.property  reported.measurement
1  O=C1NC(=O)C2C(=O)NC(=O)C1C2(c1ccccc1)c1cc[nH]c1 (centres undefined)         A498               GI50   > 100 µM (inactive)
2  O=C1OC(CCCN2CCCCC2)(c2ccccc2)CC12CCCC2 (centres undefined)         A498               GI50    57.4 µM (inactive)
3                               S=CN1CCCCC1         A498               GI50   > 100 µM (inactive)
4  Cc1ccc(S(=O)(=O)N[C@H](C(=O)O)c2ccccc2)cc1         A498               GI50   > 100 µM (inactive)
5  C=C/C(C)=C\CC1[C@](C)(O)CC[C@H]2C(C)(C)C(=O)CC[C@]12C (some centres undefined)         A498               GI50   > 100 µM (inactive)
6               CCNc1nc(N)c(C(=O)c2cccs2)s1         A498               GI50      31 µM (inactive)
7  Cc1nc2ccc([N+](=O)[O-])cc2c(=O)n1C(=S)Nc1cccc(Cl)c1         A498               GI50     9.4 µM (inactive)
8  CSC1=C(C)S/C(=C\c2ccc(/C=C3\SC(C)=C(SC)S3)cc2)S1         A498               GI50   > 100 µM (inactive)
9  O=C(N/N=C/c1cc(Br)ccc1O)N/N=C/c1cc(Br)ccc1O         A498               GI50   > 100 µM (inactive)
